Subject of test: IRAK-M (Homo sapiens, UniProt Q9Y616)
Sequence (Q9Y616 whole entry): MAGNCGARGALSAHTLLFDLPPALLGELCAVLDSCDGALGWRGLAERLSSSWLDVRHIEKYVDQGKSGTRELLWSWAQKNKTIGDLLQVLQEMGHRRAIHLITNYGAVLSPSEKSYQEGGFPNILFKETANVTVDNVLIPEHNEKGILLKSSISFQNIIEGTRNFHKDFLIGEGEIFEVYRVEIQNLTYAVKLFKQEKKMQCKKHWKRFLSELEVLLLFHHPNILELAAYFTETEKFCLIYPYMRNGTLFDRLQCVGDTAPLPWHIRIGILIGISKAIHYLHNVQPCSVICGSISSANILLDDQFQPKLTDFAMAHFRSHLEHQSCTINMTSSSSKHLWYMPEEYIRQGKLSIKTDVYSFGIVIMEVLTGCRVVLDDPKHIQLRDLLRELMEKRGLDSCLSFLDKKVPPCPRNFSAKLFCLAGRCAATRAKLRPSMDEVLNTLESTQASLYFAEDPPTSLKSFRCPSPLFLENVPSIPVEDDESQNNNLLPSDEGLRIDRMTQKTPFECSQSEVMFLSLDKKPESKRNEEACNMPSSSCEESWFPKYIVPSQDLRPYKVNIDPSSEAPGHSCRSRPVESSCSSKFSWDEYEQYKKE
Measurement protocol: IRAK-M binding inhibitory activity (KINOMEscan active site-dependent competitive assay)
Set-up: purchased Eurofins Discover X
Setup conditions: concentration of the test compound 1 μM; first symbol of cell; read-out: IRAK-M binding inhibition activity % Ctrl
Measured remaining binding at 1 µM accompanies every entry in the list below.
Measured property: remaining binding at 1 µM

INSERT INTO assay_data (molecule, measured_property, endpoint_result) VALUES
  ('C#Cc1cc2ncnc(OC3CCN(C)CC3)c2s1 [Ref. example 32]', 'remaining binding at 1 µM', '≥ 75%'),
  ('NC(=O)c1ccc(Nc2ncnc3ccsc23)cc1 [Ref. example 18]', 'remaining binding at 1 µM', '50 to 75%'),
  ('c1ccc(-c2cc3ncnc(NCc4cccnc4)c3s2)cc1 [Ref. example 16]', 'remaining binding at 1 µM', '50 to 75%'),
  ('C#CCN1CCC(Oc2ccnc3ccsc23)CC1 [Ref. example 67]', 'remaining binding at 1 µM', '25 to 50%'),
  ('CN[C@@H](C)C(=O)N[C@H](C(=O)N1CCN(C(=O)c2c(C(=O)NCCOCCOCCOc3cc(CN4CCC(Oc5ccnc6ccsc56)CC4)n(C)n3)c3cc(F)c(F)cc3n2C)CC1)C1CCCCC1 [Example 7]', 'remaining binding at 1 µM', '25 to 50%'),
  ('FC(F)(F)c1cc(Nc2ncnc3ccsc23)ccn1 [Ref. example 22]', 'remaining binding at 1 µM', '50 to 75%'),
  ('CN1CCC(Oc2ncnc3cc(I)sc23)CC1 [Ref. example 36]', 'remaining binding at 1 µM', '≥ 75%'),
  ('CN[C@@H](C)C(=O)N[C@H](C(=O)N1CCC[C@H]1c1nc(C(=O)c2cccc(OCCOCCOCCOc3cc(CN4CCC(Oc5ccnc6ccsc56)CC4)on3)c2)cs1)C1CCCCC1 [Example 59]', 'remaining binding at 1 µM', '< 25%'),
  ('CN[C@@H](C)C(=O)N[C@H](C(=O)N1CCN(C(=O)c2c(OCCOCCOCCOCCOc3cc(CN4CCC(Oc5ccnc6ccsc56)CC4)on3)c3cc(F)c(F)cc3n2C)CC1)C1CCCCC1 [Example 23]', 'remaining binding at 1 µM', '25 to 50%'),
  ('CN[C@@H](C)C(=O)N[C@H](C(=O)N1CCN(C(=O)c2ccc3c(c2)cc(C)n3CCOCCOCCOc2cc(CN3CCC(Oc4ccnc5ccsc45)CC3)on2)CC1)C1CCCCC1 [Example 55]', 'remaining binding at 1 µM', '25 to 50%'),
  ('C=CCOc1cc(C(C)N2CCC(Oc3ccnc4cc(C)sc34)CC2)on1 (stereo not drawn) [Ref. example 8]', 'remaining binding at 1 µM', '< 25%'),
  ('Cc1ncsc1-c1ccc(CNC(=O)[C@@H]2C[C@@H](O)CN2C(=O)[C@H](C(C)C)N2Cc3ccccc3C2=O)c(OCCOCCOCCOCCOc2cc(CN3CCC(Oc4ccnc5ccsc45)CC3)on2)c1 [Example 64]', 'remaining binding at 1 µM', '≥ 75%'),
  ('CCOC(=O)CCS(=O)(=O)N1CCC(Oc2ncnc3ccsc23)CC1 [Ref. example 43]', 'remaining binding at 1 µM', '50 to 75%'),
  ('Cc1ncc(CN2CCC(Oc3ccnc4ccsc34)CC2)s1 [Ref. example 80]', 'remaining binding at 1 µM', '25 to 50%'),
  ('O=S(=O)(c1ccccc1Cl)N1CCC(Oc2ncnc3ccsc23)CC1 [Ref. example 45]', 'remaining binding at 1 µM', '< 25%');
